System: MDA-MB-231 cells (breast cancer cells)
Assay: Transwell cell migration assay
Format: cell-based
Details: MDA-MB-231, 24 h, FIGS. 62-67
measure_name: migrated cells

Study these solved cases before continuing.
INSERT INTO measurements (smiles_str, assay_target, result) VALUES
  ('Fc1ccc(-c2nc3c(n2-c2ccncc2)CCCC3)cc1', 'MDA-MB-231 cells (breast cancer cells)', 'suppressed the migration'),
  ('Cc1cn(-c2ccncc2)c(-c2ccc(F)cc2)c1C#N', 'MDA-MB-231 cells (breast cancer cells)', 'suppressed the migration'),
  ('CC(=O)N1CCn2nc(-c3ccc(F)cc3)c(-c3ccncc3)c2C1', 'MDA-MB-231 cells (breast cancer cells)', 'suppressed the migration'),
  ('Fc1ccc(-c2nn[nH]c2-c2ccncc2)cc1', 'MDA-MB-231 cells (breast cancer cells)', 'suppressed the migration');

Now examine the next entry.
Task: Requested field: migrated cells. Item: Nc1nccc(-c2c(-c3ccc(F)cc3)nc3cnccn23)n1
Output: suppressed the migration
